The entries below come with measured pIC50 values attached.
system name: Pseudomonas aeruginosa LpxC enzyme (Pseudomonas aeruginosa (strain ATCC 15692 / DSM 22644 / CIP 104116 / JCM 14847 / LMG 12228 / 1C / PRS 101 / PAO1), UniProt P47205)
experimental details: biochemical
Type: biochemical
run conditions: Table 1; read-out: Pseudomonas aeruginosa LpxC IC50
Expect pIC50 as a plain number equal to -log10 of the molar concentration.

The examples below pair each entry with its known result.
| compound | readout number |
| --- | --- |
| CNc1ccc(-c2ccc(C(=O)N(C)C(C(=O)NO)C(=O)NCc3cc(C)on3)cc2)cc1 (centres unmarked) | 8.12 |
| CNC(=O)C(C(=O)NO)N(C)C(=O)c1ccc(-c2ccc(COC)cc2)cc1 (centres unmarked) | 8.21 |

Q) Quick one: give measured pIC50 for CNC(=O)C(C(=O)NO)N(C)C(=O)c1ccc(-c2ccc3c(c2)CCO3)cc1 (centres unmarked)
A) 8.30

Q) Quick one: give measured pIC50 for CNC(=O)C(C(=O)NO)N(C)C(=O)c1ccc(-c2ccc3c(c2)OC(OC)O3)cc1 (centres unmarked)
A) 8.25

Q) Quick one: give measured pIC50 for CNC(=O)C(C(=O)NO)N(C)C(=O)c1ccc(-c2ccc(F)cc2)cc1 (centres unmarked)
A) 8.15

Q) Quick one: give measured pIC50 for CNC(=O)C(C(=O)NO)N(C)C(=O)c1ccc(-c2ccc(CF)cc2)cc1 (centres unmarked)
A) 8.35

Q) Quick one: give measured pIC50 for Cc1cc(CNC(=O)C(C(=O)NO)N(C)C(=O)c2ccc(-c3ccccc3)cc2)no1 (centres unmarked)
A) 8.15

Q) Quick one: give measured pIC50 for CNC(=O)C(C(=O)NO)N(C)C(=O)c1ccc(-c2ccc3c(c2)CCN3C)cc1 (centres unmarked)
A) 8.33

----------
system name: Pseudomonas aeruginosa LpxC enzyme (Pseudomonas aeruginosa (strain ATCC 15692 / DSM 22644 / CIP 104116 / JCM 14847 / LMG 12228 / 1C / PRS 101 / PAO1), UniProt P47205)
experimental details: biochemical
Format: biochemical
run conditions: inhibitory activity on Pseudomonas aeruginosa LpxC enzyme, class symbols A/B/C; read-out: Enzyme inhibitory activity
pIC50: −log10 of the molar value.
endpoint label: pIC50

The examples below pair each entry with its known result.
| compound | pIC50 |
| --- | --- |
| CNC(=O)C(C(=O)NO)N(C)C(=O)c1ccc(-c2ccc(NCCCOC)cc2)cc1 (stereo not drawn) | > 8.00 |
| CNC(=O)C(C(=O)NO)N(C)C(=O)c1ccc(-c2ccc(NCC3CC3CNc3ccccc3)cc2)cc1 (stereo not drawn) | > 8.00 |
| CNC(=O)[C@@](C)(C(=O)NO)N(C)C(=O)c1ccc(/C=C/c2ccc(CN3CCOCC3)cc2)cc1 | > 8.00 |

Q) Quick one: give measured pIC50 for CNC(=O)C(C(=O)NO)N(C)C(=O)c1ccc(-c2ccc3c(ccn3CCCCO)c2)cc1 (stereo not drawn)
A) > 8.00

Q) Quick one: give measured pIC50 for CNC(=O)[C@@](C)(C(=O)NO)N(C)C(=O)c1ccc(C#Cc2ccc(CS(C)(=O)=O)cc2)cc1
A) > 8.00

Q) Quick one: give measured pIC50 for CNC(=O)C(C(=O)NO)N(C)C(=O)c1ccc(-c2ccc(OCCCN3CCN(c4ccccc4)CC3)cc2)cc1 (stereo not drawn)
A) > 8.00

----------
system name: Pseudomonas aeruginosa LpxC enzyme (Pseudomonas aeruginosa (strain ATCC 15692 / DSM 22644 / CIP 104116 / JCM 14847 / LMG 12228 / 1C / PRS 101 / PAO1))
experimental details: biochemical
Assay type: biochemical
run conditions: Table 4; read-out: Pseudomonas aeruginosa LpxC IC50
The entries below come with measured pIC50 values attached.
Expect pIC50 as a plain number equal to -log10 of the molar concentration.

| compound | pIC50 |
| --- | --- |
| CCOC1CN(Cc2ccc(C#Cc3ccc(C(=O)N(C)[C@@](C)(C(=O)NC)C(=O)NO)cc3)cc2)C1 | 8.64 |
| CNC(=O)[C@@](C)(C(=O)NO)N(C)C(=O)c1ccc(C#Cc2ccc(CNC3COC3)cc2)cc1 | 8.51 |
| CNC(=O)C(C(=O)NO)N(C)C(=O)c1ccc(C#C/C=C/c2ccc(CNC3CC3)cc2)cc1 (centres unmarked) | 8.04 |
| CNC(=O)C(C(=O)NO)N(C)C(=O)c1ccc(C#Cc2ccc(CNC3CC3)cc2)cc1 (centres unmarked) | 8.21 |
| CNC(=O)[C@@](C)(C(=O)NO)N(C)C(=O)c1ccc(C#Cc2coc(COC)c2)cc1 | 8.80 |

For the next question, use this compound.
Q) Quick one: give measured pIC50 for CNC(=O)C(C(=O)NO)N(C)C(=O)c1ccc(/C=C/C#Cc2ccc(CNC3CC3)cc2)cc1 (centres unmarked)
A) 8.37

----------
system name: Pseudomonas aeruginosa LpxC enzyme (Pseudomonas aeruginosa (strain ATCC 15692 / DSM 22644 / CIP 104116 / JCM 14847 / LMG 12228 / 1C / PRS 101 / PAO1), UniProt P47205)
experimental details: biochemical
Assay type: biochemical
run conditions: class symbols A/B/C by IC50; Table 3; read-out: Enzyme inhibitory activity (inhibitory activity on Pseudomonas aeruginosa LpxC enzyme)
The entries below come with measured IC50 values attached.

The examples below pair each entry with its known result.
| compound | endpoint label | result |
| --- | --- | --- |
| CCOC1CN(Cc2ccc(C#Cc3ccc(C(=O)N(C)C(C(=O)NC)C(=O)NO)cc3)cc2C)C1 (stereo not drawn) | IC50 | < 10 nM |
| CN(C(=O)c1ccc(C#Cc2ccc(CN3CCCOCC3)cc2)cc1)C(C(=O)NO)C(=O)NCc1ccccn1 (stereo not drawn) | IC50 | < 10 nM |
| CCOC1CN(Cc2ccc(C#Cc3ccc(C(=O)N(C)C(C(=O)NC)C(=O)NO)cc3)c(C(F)(F)F)c2)C1 (stereo not drawn) | IC50 | < 10 nM |

Q) Quick one: give measured IC50 for CNC(=O)C(C(=O)NO)N(C)C(=O)c1ccc(C#Cc2coc(COC)c2)cc1 (stereo not drawn)
A) < 10 nM

Q) Quick one: give measured IC50 for CNC(=O)C(C(=O)NO)N(C)C(=O)c1ccc(-c2ccc(CCCN3CCCOCC3)cc2)cc1 (stereo not drawn)
A) 10 to 100 nM

----------
System: Pseudomonas aeruginosa strain TS88 (clinical isolate)
experimental details: Antimicrobial activity, MIC by broth microdilution
Type: cell-based
run conditions: Table 1, 35° C., 18 hours, read-out: MIC Pseudomonas aeruginosa TS88 strain
The entries below come with measured MIC values attached.

Q) Quick one: give measured MIC for CNC(=O)C(C(=O)NO)N(C)C(=O)c1ccc(-c2ccc(OCCO)cc2)cc1 (centres unmarked) [Compound 153]
A) 2 µg/mL

----------
system name: Pseudomonas aeruginosa LpxC enzyme (Pseudomonas aeruginosa (strain ATCC 15692 / DSM 22644 / CIP 104116 / JCM 14847 / LMG 12228 / 1C / PRS 101 / PAO1), UniProt P47205)
experimental details: biochemical
Assay type: biochemical
run conditions: inhibitory activity on Pseudomonas aeruginosa LpxC enzyme, class symbols A/B/C; read-out: Enzyme inhibitory activity
endpoint label: IC50

| compound | endpoint label | result |
| --- | --- | --- |
| CNC(=O)C(C(=O)NO)N(C)C(=O)c1ccc(-c2ccoc2)cc1 (stereo not shown) | IC50 | > 100 nM |

Q) Quick one: give measured IC50 for CNC(=O)C(C(=O)NO)N(C)C(=O)c1ccc(-c2ccc(NCCCN3CCOCC3)cc2)cc1 (stereo not shown)
A) 10 to 100 nM

Q) Quick one: give measured IC50 for CNC(=O)C(C(=O)NO)N(C)C(=O)c1ccc(-c2cc(F)c(F)c(F)c2)cc1 (stereo not shown)
A) 10 to 100 nM

Q) Quick one: give measured IC50 for CNC(=O)C(C(=O)NO)N(C)C(=O)c1ccc(-c2nc3ccccc3o2)cc1 (stereo not shown)
A) > 100 nM

----------
Test system: Klebsiella pneumoniae strain ATCC13883
experimental details: Antimicrobial activity, MIC by broth microdilution
Format: cell-based
run conditions: Table 4, 35° C., 18 hours, read-out: Klebsiella pneumoniae ATCC 13883 strain MIC
So basically: is MIC under 2 µg/mL? Then satisfied. Not under? Then not satisfied.

Please review the entries below; each comes with its answer.
| molecule | system name | answer label |
| --- | --- | --- |
| CCOc1ccc(-c2ccc(C(=O)N(C)C(C(=O)NC)C(=O)NO)cc2)cc1 (stereo not shown) | Klebsiella pneumoniae strain ATCC13883 | not satisfied |
| CNC(=O)[C@@](C)(C(=O)NO)N(C)C(=O)c1ccc(C#Cc2ccc(CNCCF)cc2)cc1 | Klebsiella pneumoniae strain ATCC13883 | satisfied |

Q) Identify whether the molecule CNC(=O)C(C(=O)NO)N(C)C(=O)c1ccc(-c2ccc(C#CCOC)cc2)cc1 (stereo not shown) records MIC below 2 µg/mL.
A) not satisfied

Q) Identify whether the molecule CNC(=O)C(C(=O)NO)N(C)C(=O)c1ccc(C#CC#CC2CC2)cc1 (stereo not shown) records MIC below 2 µg/mL.
A) satisfied

Q) Identify whether the molecule CNC(=O)[C@@](C)(C(=O)NO)N(C)C(=O)c1ccc(C#Cc2ccc(CN3CCOCC3)cc2)cc1 records MIC below 2 µg/mL.
A) satisfied

Values from patent US9073821B2
